Target: human LPAR1 (Homo sapiens)
Sequence (Q92633 whole entry): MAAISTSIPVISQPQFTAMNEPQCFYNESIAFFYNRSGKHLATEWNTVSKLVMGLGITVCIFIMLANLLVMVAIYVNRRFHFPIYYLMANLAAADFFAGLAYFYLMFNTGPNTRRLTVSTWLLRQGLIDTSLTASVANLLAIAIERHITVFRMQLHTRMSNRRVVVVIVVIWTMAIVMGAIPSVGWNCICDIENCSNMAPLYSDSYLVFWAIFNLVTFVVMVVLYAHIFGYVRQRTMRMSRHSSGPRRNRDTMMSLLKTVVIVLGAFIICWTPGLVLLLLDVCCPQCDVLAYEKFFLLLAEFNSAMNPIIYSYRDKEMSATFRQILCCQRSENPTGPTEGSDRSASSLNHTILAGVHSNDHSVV
Assay: In vitro functional assay of lysophosphatidic acid receptor 1 activity (calcium flux)
Assay type: cell-based
Conditions: B103 cells stably expressing human LPAR1; calcium flux (Fluo-4 NW) after lysophosphatidic acid (18:1) at EC80; 100 pM to 10 μM; read-out: LPAR1 IC50
quantity-kind: IC50

COc1ccc(NC(=O)N(c2ccccc2C(C)C)C2CC(CC(=O)O)C2)c(OC(F)F)n1 (stereo not shown) [Example 148]	< 10 nM
Cc1ccc(NC(=O)N(c2ccccc2C(C)C)[C@H]2CC[C@H](c3nnn[nH]3)CC2)c(OC(F)F)n1 [Example 248]	100 to 1000 nM
COCC(=O)N1CC(N(C(=O)Nc2ccc(C)nc2OC(F)F)c2ccccc2C(C)C)C1 [Example 82]	10 to 100 nM

Exercise: Provide IC50, tested on human LPAR1 (Homo sapiens), for COC[C@H](C)Oc1nc(OC)ccc1NC(=O)N(c1ccccc1C(C)C)[C@H]1CC[C@H](C(=O)O)CC1 [Example 339] .
Key: 10 to 100 nM

###

Target: UniProt:Q92633
Assay: In vitro functional assay of lysophosphatidic acid receptor 1 activity (calcium flux)
Assay type: cell-based
Details: B103 cells stably expressing human LPAR1; calcium flux (Fluo-4 NW) after lysophosphatidic acid (18:1) at EC80; 100 pM to 10 μM; read-out: LPAR1 IC50
pIC50: −log10 of the molar value.
# pIC50 annotations

In the examples that follow, each entry is paired with its recorded pIC50.
COc1ccc(NC(=O)N(c2ccccc2C(C)C)[C@H]2CCC[C@@H](C(=O)O)C2)c(OC(F)F)n1 [Example 147]	> 8.00
Cc1ccc(NC(=O)N(c2ccccc2C(C)C)[C@H]2CC[C@@H](C#N)CC2)c(OC(F)F)n1 [Example 240]	6.00 to 7.00
Cc1ccc(NC(=O)N(CC23CC(C(=O)O)(C2)C3(F)F)c2ccccc2C(C)C)c(OC(F)F)n1 [Example 235]	7.00 to 8.00
Cc1ccc(NC(=O)N(c2ccccc2C(C)C)[C@H]2C[C@H](O)C2)c(OC(F)F)n1 [Example 181]	7.00 to 8.00
COc1ccc(NC(=O)N(CC23CC(C(=O)O)(C2)C3(F)F)c2ccccc2C(C)C)c(OC(F)F)n1 [Example 234]	7.00 to 8.00
COc1ccc(NC(=O)N(c2ccccc2C(C)C)C2CN(C(C)=O)C2)c(OC)c1C [Example 119]	6.00 to 7.00
CC(=O)N1CC(N(C(=O)Nc2ncc(Cl)cc2OC(F)F)c2ccccc2C(C)C)C1 [Example 120]	6.00 to 7.00
COc1ccc(NC(=O)N(c2ccccc2C(C)C)[C@H]2CC[C@H](C(=O)NS(C)(=O)=O)CC2)c(OC(F)F)n1 [Example 279]	> 8.00
C#CCCS(=O)(=O)NC(=O)[C@H]1CC[C@H](N(C(=O)Nc2ccc(OC)nc2OC(F)F)c2ccccc2C(C)C)CC1 [Example 280]	> 8.00
Cc1ccc(NC(=O)N(CC23CC(C(=O)O)(C2)C3)c2ccccc2C(C)C)c(OC(F)F)n1 [Example 173]	7.00 to 8.00

Exercise: Return value of pIC50 for input COc1ccc(NC(=O)N(c2ccccc2C(C)C)[C@H]2CC[C@](O)(C(F)(F)C(=O)O)CC2)c(OC(F)F)n1 [Example 322] , no commentary.
Key: > 8.00

Exercise: Return value of pIC50 for input Cc1ccc(NC(=O)N(c2ccccc2C(C)C)[C@H]2CC[C@H](C#N)CC2)c(OC(F)F)n1 [Example 241] , no commentary.
Key: 6.00 to 7.00

Exercise: Return value of pIC50 for input [2H]C([2H])([2H])Oc1ccc(NC(=O)N(c2ccccc2C(C([2H])([2H])[2H])C([2H])([2H])[2H])[C@H]2CC[C@H](C(=O)O)CC2)c(OC(F)F)n1 [Example 262] , no commentary.
Key: > 8.00

Exercise: Return value of pIC50 for input Cc1ccc(NC(=O)N(c2ccccc2C(C)C)[C@H]2CC[C@H](C(=O)O)CC2)c(OCC(F)F)n1 [Example 335] , no commentary.
Key: 7.00 to 8.00

Exercise: Return value of pIC50 for input Cc1ccc(NC(=O)N(c2ccccc2C(C)C)C2CNC(=O)C2)c(OC(F)F)n1 (centres unmarked) [Example 30] , no commentary.
Key: 6.00 to 7.00

Exercise: Return value of pIC50 for input Cc1ccc(NC(=O)N(c2ccccc2C(C)C)[C@@H]2CCC(=O)N(C)C2)c(OC(F)F)n1 [Example 5] , no commentary.
Key: 7.00 to 8.00

Exercise: Return value of pIC50 for input COC(=O)[C@H]1C[C@H](N(C(=O)Nc2cc(F)c(F)cc2OC(F)F)c2ccccc2C(C)C)C1 [Example 163] , no commentary.
Key: < 6.00

Exercise: Return value of pIC50 for input Cc1ccc(NC(=O)N(c2ccccc2C(C)C)[C@H]2C[C@@H](Cc3nnn[nH]3)C2)c(OC(F)F)n1 [Example 192] , no commentary.
Key: 7.00 to 8.00
